Test system: maize
Assay: Pre-emergence test in maize (crop plant compatibility)
Type: in vivo
Conditions: Table A29; 90 g of a.i./ha
Description: Solvent: 2 to 3 parts by weight of acetone or N,N-dimethyl-formamide Emulsifier: 1 part by weight of alkylaryl polyglycol ether To produce a suitable preparation of active compound, 1 part by weight of active compound is mixed with the stated amount of solvent, the stated amount of emulsifier is added and the concentrate is diluted with water to the desired concentration. Formulated products are dissolved in water and then diluted with water to the desired concentration. […]
reported property: Maize (21 days) (%)
One number for each entry, in %.

Supply reported Maize (21 days) belonging to this molecule: "CCS(=O)(=O)N(C(=O)C(C)(C)C)c1cc(-n2c(=O)cc(C(F)(F)F)n(C)c2=O)c(F)cc1C#N"
36

###

system: maize; assay: Pre-emergence test in maize (crop plant compatibility); type: in vivo; details: Table A32; 60 g of a.i./ha
reported property: Maize (21 days) (%)
Give bare numbers, in %.

Supply Maize (21 days) value. Item: CCS(=O)(=O)N(C(=O)c1cccs1)c1cc(-n2c(=O)cc(C(F)(F)F)n(N)c2=O)c(F)cc1C#N [I-5]
18

###

system: maize; assay: Pre-emergence test in maize (crop plant compatibility); assay type: in vivo; conditions: Table A28; 60 g of a.i./ha
reported property: Maize (7 days) (%)
Give bare numbers, in %.

# return recorded Maize (7 days) for input "CCS(=O)(=O)N(C(=O)C(C)(C)C)c1cc(-n2c(=O)cc(C(F)(F)F)n(C)c2=O)c(F)cc1C#N"
10

###

system: maize; assay: Pre-emergence test in maize (crop plant compatibility); assay type: in vivo; conditions: Table A32; 90 g of a.i./ha
reported property: Maize (12 days) (%)
Numbers only, in %.

Supply Maize (12 days) value. Item: CCS(=O)(=O)N(C(=O)c1cccs1)c1cc(-n2c(=O)cc(C(F)(F)F)n(N)c2=O)c(F)cc1C#N [I-5]
70

###

test system: Digitaria; test: Pre-emergence test (herbicidal action, Colby): Digitaria; assay type: in vivo; conditions: 30 g of a.i./ha
reported property: Digitaria (%)
Answers are plain numbers, in %.

Kindly give each listed record's Digitaria.
1. CC(C)N(C(=O)COc1nnc(C(F)(F)F)s1)c1ccc(F)cc1 [flufenacet]
2. CSc1nnc(C(C)(C)C)c(=O)n1N [metribuzin]
3. CS(=O)(=O)c1cc(C(F)(F)F)ccc1C(=O)c1cnoc1C1CC1 [isoxaflutole]
4. CC(C)c1nn(C(=O)NC(C)(C)C)c(=O)n1N [amicarbazone]

[80, 30, 90, 20]

###

system: maize; assay: Pre-emergence test in maize (crop plant compatibility); type: in vivo; conditions: Table A29; 60 g of a.i./ha
reported property: Maize (12 days)
Field note: include the unit after the figure.

Supply measured Maize (12 days) of "CCS(=O)(=O)N(C(=O)C(C)(C)C)c1cc(-n2c(=O)cc(C(F)(F)F)n(C)c2=O)c(F)cc1C#N" in your reply.
20%

###

system: maize; experiment: Pre-emergence test in maize (crop plant compatibility); assay type: in vivo; settings: Table A30; 90 g of a.i./ha
reported property: Maize (12 days) (%)
Answers are plain numbers, in %.

Specify measured Maize (12 days) for CCS(=O)(=O)Nc1cc(-n2c(=O)cc(C(F)(F)F)n(C)c2=O)c(F)cc1C(N)=S [I-6] .
60

###

Assignment: determine reported Datura for the given molecules.
system: Datura; assay: Pre-emergence test (herbicidal action, Colby): Datura; assay type: in vivo; conditions: 30 g of a.i./ha
Answers are plain numbers, in %.

Example entries and their recorded answers appear below.
smi | reported property | result number
CSc1nnc(C(C)(C)C)c(=O)n1N | Datura | 20
CS(=O)(=O)c1ccc(C(=O)C2C(=O)CCCC2=O)c(Cl)c1 | Datura | 50
CC(C)c1nn(C(=O)NC(C)(C)C)c(=O)n1N | Datura | 0

// moving on: another record for Datura
Report Datura for "CC(C)N(C(=O)COc1nnc(C(F)(F)F)s1)c1ccc(F)cc1"
20

###

test system: maize; assay: Pre-emergence test in maize (crop plant compatibility); assay type: in vivo; conditions: Table A30; 60 g of a.i./ha
reported property: Maize (7 days) (%)
One number for each entry, in %.

Supply Maize (7 days) measured with maize for "CCS(=O)(=O)Nc1cc(-n2c(=O)cc(C(F)(F)F)n(C)c2=O)c(F)cc1C(N)=S" .
30

###

system: maize; test: Pre-emergence test in maize (crop plant compatibility); assay type: in vivo; conditions: Table A31; 90 g of a.i./ha
reported property: Maize (7 days) (%)
Give bare numbers, in %.

For the compound "CCS(=O)(=O)N(C(=O)C(C)(C)C)c1cc(-n2c(=O)cc(C(F)(F)F)n(C)c2=O)c(F)cc1C#N" , give its measured Maize (7 days) value.
20

###

tested on: maize; test: Pre-emergence test in maize (crop plant compatibility); type: in vivo; settings: Table A32; 60 g of a.i./ha
reported property: Maize (7 days) (%)
One number for each entry, in %.

Lab note: maize assay, enter Maize (7 days) for CCS(=O)(=O)N(C(=O)c1cccs1)c1cc(-n2c(=O)cc(C(F)(F)F)n(N)c2=O)c(F)cc1C#N [I-5] here
20

###

tested on: maize; assay: Pre-emergence test in maize (crop plant compatibility); assay type: in vivo; details: Table A32; 90 g of a.i./ha
reported property: Maize (21 days)

Return the recorded Maize (21 days) value; entry: "CCS(=O)(=O)N(C(=O)c1cccs1)c1cc(-n2c(=O)cc(C(F)(F)F)n(N)c2=O)c(F)cc1C#N"
64%

###

system: maize; assay: Pre-emergence test in maize (crop plant compatibility); type: in vivo; settings: Table A28; 90 g of a.i./ha
reported property: Maize (21 days) (%)
Numbers only, in %.

Read the entry CCS(=O)(=O)N(C(=O)C(C)(C)C)c1cc(-n2c(=O)cc(C(F)(F)F)n(C)c2=O)c(F)cc1C#N [I-3] and write its reported Maize (21 days).
36

###

system: maize; assay: Pre-emergence test in maize (crop plant compatibility); format: in vivo; settings: Table A32; 60 g of a.i./ha
reported property: Maize (12 days) (%)
Numbers only, in %.

Write down the reported Maize (12 days) (system: maize) of "CCS(=O)(=O)N(C(=O)c1cccs1)c1cc(-n2c(=O)cc(C(F)(F)F)n(N)c2=O)c(F)cc1C#N"
30

###

test system: maize; assay: Pre-emergence test in maize (crop plant compatibility); format: in vivo; details: Table A29; 90 g of a.i./ha
reported property: Maize (12 days) (%)
Give bare numbers, in %.

Output measured Maize (12 days) for this item: "CCS(=O)(=O)N(C(=O)C(C)(C)C)c1cc(-n2c(=O)cc(C(F)(F)F)n(C)c2=O)c(F)cc1C#N"
30

###

test system: maize; test: Pre-emergence test in maize (crop plant compatibility); type: in vivo; settings: Table A32; 90 g of a.i./ha
reported property: Maize (7 days) (%)
One number for each entry, in %.

Annotate the compound "CCS(=O)(=O)N(C(=O)c1cccs1)c1cc(-n2c(=O)cc(C(F)(F)F)n(N)c2=O)c(F)cc1C#N" with its measured Maize (7 days).
60

###

tested on: maize; assay: Pre-emergence test in maize (crop plant compatibility); type: in vivo; settings: Table A30; 90 g of a.i./ha
reported property: Maize (21 days) (%)
One number for each entry, in %.

Look up and report measured Maize (21 days) for this entry: CCS(=O)(=O)Nc1cc(-n2c(=O)cc(C(F)(F)F)n(C)c2=O)c(F)cc1C(N)=S [I-6]
30

###

system: maize; experiment: Pre-emergence test in maize (crop plant compatibility); assay type: in vivo; conditions: Table A28; 60 g of a.i./ha
reported property: Maize (12 days) (%)
Numbers only, in %.

Give Maize (12 days) for the following compound: "CCS(=O)(=O)N(C(=O)C(C)(C)C)c1cc(-n2c(=O)cc(C(F)(F)F)n(C)c2=O)c(F)cc1C#N"
20

###

System: maize
Test: Pre-emergence test in maize (crop plant compatibility)
Type: in vivo
Conditions: Table A28; 60 g of a.i./ha
Description: Solvent: 2 to 3 parts by weight of acetone or N,N-dimethyl-formamide Emulsifier: 1 part by weight of alkylaryl polyglycol ether To produce a suitable preparation of active compound, 1 part by weight of active compound is mixed with the stated amount of solvent, the stated amount of emulsifier is added and the concentrate is diluted with water to the desired concentration. Formulated products are dissolved in water and then diluted with water to the desired concentration. […]
reported property: Maize (21 days) (%)
One number for each entry, in %.

Provide Maize (21 days) value for the following compound: "CCS(=O)(=O)N(C(=O)C(C)(C)C)c1cc(-n2c(=O)cc(C(F)(F)F)n(C)c2=O)c(F)cc1C#N"
17
